Target: JAK2 (Homo sapiens (Human), UniProt O60674)
Sequence (O60674 849-1124): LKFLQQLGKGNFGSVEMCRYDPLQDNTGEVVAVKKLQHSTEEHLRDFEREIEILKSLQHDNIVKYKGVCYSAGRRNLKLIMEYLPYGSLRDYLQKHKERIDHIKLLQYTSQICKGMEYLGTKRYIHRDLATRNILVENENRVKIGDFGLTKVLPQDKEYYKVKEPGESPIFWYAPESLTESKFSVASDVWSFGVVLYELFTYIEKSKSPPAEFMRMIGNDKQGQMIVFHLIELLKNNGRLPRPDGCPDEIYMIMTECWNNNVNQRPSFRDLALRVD
Experiment: JAK kinase assay (HTRF), JAK2
Details: catalytic domain, ATP at Km (4 μM)
quantity measured: EC50
Answers without a unit are incomplete; give the number and then its unit.

Worked examples follow.
molecule="C[C@@H](NC(=O)C1CCN(c2ncnc3[nH]ccc23)CC12CC2)c1ccccc1 (some centres unmarked) [Example 136]" val="55.1 nM"
molecule="O=C(N[C@H](CO)C(=O)OC1CCCC1)[C@H]1CCN(c2ncnc3[nH]ccc23)CC12CC2 [Example 96]" val="28.7 nM"
molecule="O=C(OCC1CC(F)(F)C1)[C@H]1CCN(c2ncnc3[nH]ccc23)CC12CC2 [Example 154]" val="1.7 nM"
molecule="O=C(NCC1(O)CCCC1)C1CCN(c2ncnc3[nH]ccc23)CC12CC2 (centres unmarked) [Example 88]" val="23.7 nM"
molecule="N#Cc1ccc(CNC(=O)C2CCN(c3ncnc4[nH]ccc34)CC23CC3)cc1 (centres unmarked) [Example 26]" val="6.4 nM"

Recorded result, O=C(N[C@H](CO)C(=O)OCC1(CO)CCC1)[C@H]1CCN(c2ncnc3[nH]ccc23)CC12CC2 [Example 98] , EC50: 15 nM

Memo: O=C(NCC1(O)CCC1)[C@H]1CCN(c2ncnc3[nH]ccc23)CC12CC2 [Example 68] , reported EC50: 11.8 nM

For reference, reported EC50 for COc1cc([C@@H](C)NC(=O)C2CCN(c3ncnc4[nH]ccc34)CC23CC3)ccc1F (some centres unmarked) [Example 143] stands at 90.4 nM

---

Biological target: JAK2 (Homo sapiens (Human))
Test: JAK kinase assay (HTRF), JAK2
Conditions: catalytic domain, ATP at Km (4 μM)
Procedure: Human baculovirus-expressed JAK1, 2, 3 and TYK2 were purchased from Carna Biosciences, Inc. All four purified enzymes contain only the catalytic domain. […] Inhibition of phosphorylation of a synthetic peptide was measured in an HTRF-based assay using the TK substrate-Biotin from the Cisbio HTRFKinEASE TK kit. […] The HTRF signal is read using an Envision plate reader.
pEC50: −log10 of the molar value.
Criterion: pEC50 meeting or surpassing 8. Met: true (1). Not met: false (0).

Answered examples (5):
compound="O=C(N[C@@H](CO)c1ccc(F)cc1CO)[C@H]1CCN(c2ncnc3[nH]ccc23)CC12CC2 [Example 100]" label_class="false (0)"
compound="C[C@H](NC(=O)[C@H]1CCN(c2ncnc3[nH]ccc23)CC12CC2)[C@H](O)c1ccc(F)cc1 [Example 45]" label_class="true (1)"
compound="O=C(NC[C@H](O)c1ccccc1)C1CCN(c2ncnc3[nH]ccc23)CC12CC2 (stereo partly shown) [Example 103]" label_class="false (0)"
compound="O=C(N[C@H](CO)c1ccccc1)C1CCN(c2ncnc3[nH]ccc23)CC12CC2 (stereo partly shown) [Example 127]" label_class="false (0)"
compound="N#Cc1ccc([C@@H](O)CNC(=O)[C@H]2CCN(c3ncnc4[nH]ccc34)CC23CC3)cc1 [Example 29]" label_class="true (1)"

-- ask Does N#CCC1(COC(=O)C2CCN(c3ncnc4[nH]ccc34)CC23CC3)CC1 (stereo not shown) [Example 164] have a reported pEC50 of at least 8?
-- reply true (1)

-- ask Could you please find out whether O=C(NCC1CCC1)C1CCN(c2ncnc3[nH]ccc23)CC12CC2 (stereo not shown) [Example 115] has pEC50 that meets 8 or exceeds it?
-- reply false (0)

-- ask Would you say Cc1cc([C@@H](O)[C@H](C)NC(=O)[C@H]2CCN(c3ncnc4[nH]ccc34)CC23CC3)ncc1F [Example 133] shows pEC50 at minimum 8?
-- reply false (0)

-- ask # bool: pEC50 of O=C(NCC1(CO)CC(F)(F)C1)C1CCN(c2ncnc3[nH]ccc23)CC12CC2 (stereo not shown) [Example 35] >= 8
-- reply true (1)

---

Below: a set of entries, each annotated with reported CLint scaled at 0.5 μM.
Test: in vitro metabolic stability in human liver microsomes
Type: in vitro ADME
Settings: human, liver microsomes, 0.5 μM compound, 0.5 mg/mL microsomes, NADPH, 40 min, 37° C.; read-out: Human liver microsome Clapp (apparent intrinsic clearance)
Report the value in mL/min/kg with no unit label.

Example cases with answers are listed next.
compound=N#Cc1ccc(CNC(=O)[C@H]2CCN(c3ncnc4[nH]ccc34)CC23CC3)cc1F quantity_measured="CLint scaled at 0.5 μM" reading_unit=mL/min/kg val=180
compound="O=C(NCC(O)c1ccc(F)cn1)[C@H]1CCN(c2ncnc3[nH]ccc23)CC12CC2 (stereo partly shown)" quantity_measured="CLint scaled at 0.5 μM" reading_unit=mL/min/kg val=73
compound=O=C(NC[C@H](O)C1CCC1)[C@H]1CCN(c2ncnc3[nH]ccc23)CC12CC2 quantity_measured="CLint scaled at 0.5 μM" reading_unit=mL/min/kg val=46
compound=C[C@H](NC(=O)[C@H]1CCN(c2ncnc3[nH]ccc23)CC12CC2)c1ccc(C#N)cn1 quantity_measured="CLint scaled at 0.5 μM" reading_unit=mL/min/kg val=48
compound=O=C(NCC1(CO)CCCC1)[C@H]1CCN(c2ncnc3[nH]ccc23)CC12CC2 quantity_measured="CLint scaled at 0.5 μM" reading_unit=mL/min/kg val=118
compound=C[C@H](NC(=O)[C@H]1CCN(c2ncnc3[nH]ccc23)CC12CC2)[C@@H](O)c1ccc(F)cn1 quantity_measured="CLint scaled at 0.5 μM" reading_unit=mL/min/kg val=166
compound=O=C(OCC1(CO)CC1)[C@H]1CCN(c2ncnc3[nH]ccc23)CC12CC2 quantity_measured="CLint scaled at 0.5 μM" reading_unit=mL/min/kg val=94
compound=C[C@H](NC(=O)[C@H]1CCN(c2ncnc3[nH]ccc23)CC12CC2)c1ccc(C#N)cc1 quantity_measured="CLint scaled at 0.5 μM" reading_unit=mL/min/kg val=123
compound=O=C(NCC1CC(F)(F)C1)[C@H]1CCN(c2ncnc3[nH]ccc23)CC12CC2 quantity_measured="CLint scaled at 0.5 μM" reading_unit=mL/min/kg val=48
compound="N#Cc1ccc(C(O)CNC(=O)C2CCN(c3ncnc4[nH]ccc34)CC23CC3)cc1 (stereo not shown)" quantity_measured="CLint scaled at 0.5 μM" reading_unit=mL/min/kg val=186

The measured CLint scaled at 0.5 μM associated with `O=C(OCC1CC(F)(F)C1)[C@H]1CCN(c2ncnc3[nH]ccc23)CC12CC2` reads 149

get_value(item= `O=C(N[C@@H](CO)[C@H](O)c1ccc(F)cc1)[C@H]1CCN(c2ncnc3[nH]ccc23)CC12CC2` , readout=CLint scaled at 0.5 μM) returns 109

---

Biological target: UniProtKB O60674
Experiment: JAK kinase assay (HTRF), JAK2
Details: catalytic domain, ATP at Km (4 μM)
Measured log10 EC50, listed per entry.
log10 EC50, nM

Past entries and their recorded results:
compound=O=C(N[C@H](CO)C(=O)OCC1CC1)[C@H]1CCN(c2ncnc3[nH]ccc23)CC12CC2 target_entity="UniProtKB O60674" quantity_measured="log10 EC50" val=1.25
compound=C[C@H](NC(=O)[C@H]1CCN(c2ncnc3[nH]ccc23)CC12CC2)c1ccc(C#N)cc1F target_entity="UniProtKB O60674" quantity_measured="log10 EC50" val=0.49
compound=COc1cc(F)ccc1[C@H](CO)NC(=O)[C@H]1CCN(c2ncnc3[nH]ccc23)CC12CC2 target_entity="UniProtKB O60674" quantity_measured="log10 EC50" val=1.39
compound="COc1cncc([C@@H](C)NC(=O)C2CCN(c3ncnc4[nH]ccc34)CC23CC3)c1 (stereo partly shown)" target_entity="UniProtKB O60674" quantity_measured="log10 EC50" val=1.91
compound="O=C(NCc1ccccc1)C1CCN(c2ncnc3[nH]ccc23)CC12CC2 (stereo not shown)" target_entity="UniProtKB O60674" quantity_measured="log10 EC50" val=1.25
compound="O=C(NCc1cccc(F)c1)C1CCN(c2ncnc3[nH]ccc23)CC12CC2 (stereo not shown)" target_entity="UniProtKB O60674" quantity_measured="log10 EC50" val=1.15

compound `O=C(N[C@H](CO)C(=O)OCC1CC(F)(F)C1)[C@H]1CCN(c2ncnc3[nH]ccc23)CC12CC2` , log10 EC50 observed: 0.83

Quick note, log10 EC50 for `N#Cc1ccc([C@@H](CO)NC(=O)[C@H]2CCN(c3ncnc4[nH]ccc34)CC23CC3)nc1` landed at 1.68

Looking up `C[C@H](NC(=O)[C@H]1CCN(c2ncnc3[nH]ccc23)CC12CC2)[C@H](O)c1ccc(C#N)cc1` , I found its log10 EC50 recorded as 1.41

Kindly note the recorded log10 EC50 for `O=C(NCC1(O)CCCC1)[C@H]1CCN(c2ncnc3[nH]ccc23)CC12CC2` , which is 1.18

Lab note: measured log10 EC50 of `O=C(OCc1ccccc1)[C@H](CO)NC(=O)[C@H]1CCN(c2ncnc3[nH]ccc23)CC12CC2` was 2.05

The compound O=C(NCc1cccnc1)C1CCN(c2ncnc3[nH]ccc23)CC12CC2 (stereo not shown) showed log10 EC50 equal to 1.58

Please fill in: log10 EC50 reported for `O=C(OCC1(CO)CS(=O)(=O)C1)[C@H]1CCN(c2ncnc3[nH]ccc23)CC12CC2` = -0.22

Notebook: `CCc1cc(C#N)ccc1[C@H](CO)NC(=O)[C@H]1CCN(c2ncnc3[nH]ccc23)CC12CC2` , log10 EC50 read as 1.49

// log10 EC50 lookup, compound = `O=C(N[C@H](CO)c1ccccn1)[C@H]1CCN(c2ncnc3[nH]ccc23)CC12CC2` , result: 1.92

The compound listed as `O=C(NC[C@@H](O)c1ccccc1)[C@H]1CCN(c2ncnc3[nH]ccc23)CC12CC2` has a reported log10 EC50 of 1.05

For reference, reported log10 EC50 for `C[C@H](NC(=O)[C@H]1CCN(c2ncnc3[nH]ccc23)CC12CC2)[C@@H](O)c1ccccn1` stands at 1.48
